# target_entity: ACE2: SARS-CoV-2 Spike complex (UniProt P0DTC2+Q9BYF1)
# Construct: BPS Bioscience Cat: 79936; inferred from capture on a nickel-coated plate; inferred from detection with anti-mouse Fc-HRP
# measurement_protocol: biochemical
readout_name: IC50 (nM)
Reply numerically in nM, unit not repeated.

CC(C)CN(C[C@@H](O)[C@H](Cc1ccccc1)NC(=O)O[C@H]1CO[C@H]2OCC[C@H]21)S(=O)(=O)c1ccc(N)cc1 [darunavir, Darunavir, reference compound] | 5.5

We now examine a further molecule.
input: Tell me IC50 reported for CC(=O)N[C@H]1[C@H]([C@H](O)[C@H](O)CO)OC(O)(C(=O)O)C[C@@H]1O (some centres unmarked)
output: 19
